Each record here notes measured one-hybrid fitness for binding NBS DNA.
B1: Caulobacter ParB omega fusion; a variant is named by its letters at X, in order, B8GW30 (parent)
chain: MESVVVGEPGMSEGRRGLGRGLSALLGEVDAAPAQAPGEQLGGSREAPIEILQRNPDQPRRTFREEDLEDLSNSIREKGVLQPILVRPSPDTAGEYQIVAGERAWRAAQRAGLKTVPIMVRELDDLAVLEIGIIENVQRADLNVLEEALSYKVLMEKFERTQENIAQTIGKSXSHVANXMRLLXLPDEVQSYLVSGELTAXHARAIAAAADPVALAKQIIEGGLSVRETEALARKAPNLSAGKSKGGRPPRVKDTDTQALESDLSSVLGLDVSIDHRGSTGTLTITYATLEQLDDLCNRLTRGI

- Variants of: B1
- experimentDescription: one-hybrid fitness for binding NBS DNA (the Noc-binding site; scaled: cognate 1, non-cognate 0); higher = stronger binding
- recordedConditions: with NBS DNA site
In all, about 81,000 sequences were measured (“one-hybrid fitness for binding NBS DNA”: median about -0.1, highest 2% from about 0.36 on). For the sample, the highest values were picked, then their nearest neighbours and some sequences at random.
experimentalReadout: one-hybrid fitness for binding NBS DNA

>>> result("PAKH")
"≤ 0.2"
>>> result("QMYA")
0.267
>>> result("QYNQ")
"≤ 0.2"
>>> result("QFDT")
"≤ 0.2"
>>> result("RPQR")
"≤ 0.2"
>>> result("QPDT")
"≤ 0.2"
>>> result("YVKV")
"≤ 0.2"
>>> result("HSGS")
"≤ 0.2"
>>> result("QADA")
"≤ 0.2"
>>> result("TYVS")
"≤ 0.2"
>>> result("QYVQ")
0.313
>>> result("RSQR")
0.44
>>> result("CRNI")
"≤ 0.2"
>>> result("RFQR")
0.282
>>> result("QHDA")
"≤ 0.2"
>>> result("THMM")
"≤ 0.2"
>>> result("QCYA")
0.328
>>> result("CATP")
"≤ 0.2"
>>> result("QADT")
0.287
>>> result("QCDT")
0.369
>>> result("RDQR")
"≤ 0.2"
>>> result("QYRQ")
0.435
